- ASSAY_COMMENT: Stability in rabbit plasma
- CONDITION_SUMMARY: rabbit, plasma
ENDPOINT: Half life in rabbit plasma (h)

Solved entries:
CCCCCCCCCCOC(=O)[C@H](NC(=O)[C@H](CSCc1ccccc1)NC(=O)CC[C@H](N)C(=O)OCC)c1ccccc1.Cl [Comparative Example 4, reference compound] :: 3.02
CCCCCCCCCCCCCCCCOC(=O)[C@@H](N)CCC(=O)N[C@@H](CSCc1ccccc1)C(=O)N[C@@H](C(=O)OCC)c1ccccc1.Cl [Example 4] :: 22.05

P = CCCCCCCCOC(=O)[C@H](NC(=O)[C@H](CSCc1ccccc1)NC(=O)CC[C@H](N)C(=O)OCC)c1ccccc1.Cl [Comparative Example 2, reference compound]
Q = CCOC(=O)[C@@H](N)CCC(=O)N[C@@H](CSCc1ccccc1)C(=O)N[C@@H](C(=O)OCC)c1ccccc1.Cl [Comparative Example 1, reference compound]
(Q) Which entry shows the lesser value of Half life in rabbit plasma here, P or Q ? Reply with the label of the item you choose.
(A) P
(P: 3.97 h, Q: 6.53 h)
